FYI, the data here is from ChEMBL document CHEMBL2429741.

- Test system: Plasmodium falciparum
- method: Antimicrobial activity against chloroquine-resistant blood stage forms of Plasmodium falciparum Dd2 after 3 days by HRP2-based ELISA
- Format: functional, organism-based
- conditionParameters: Dd2, 72 h
Entries and their measured log10(IC50) follow.
Transform log10 | Measure IC50 | Unit nM

Use these answered entries as a reference point.
compound	measuredTarget	assayResult
CN(O)C(=O)CCC(c1ccccc1)P(=O)(O)O (configuration not stated)	Plasmodium falciparum	1.87
O=C(CCC(c1ccccc1)P(=O)(O)O)NO (configuration not stated)	Plasmodium falciparum	2.76
O=C(CCC(c1ccc(F)c(F)c1)P(=O)(O)O)NO (configuration not stated)	Plasmodium falciparum	1.81
O=C(CSC(c1ccccc1)P(=O)(O)O)NO (racemic)	Plasmodium falciparum	3.58
CN(O)C(=O)CSC(c1cccc2ccccc12)P(=O)(O)O (racemic)	Plasmodium falciparum	2.71

### Prompt Can you look up log10(IC50) on Plasmodium falciparum for O=C(CSC(c1ccc(Cl)c(Cl)c1)P(=O)(O)O)NO (racemic) ?
### Response 2.94

### Prompt One more compound: CN(O)C(=O)CSC(c1ccc(Cl)c(Cl)c1)P(=O)(O)O (racemic)
### Response 1.93

### Prompt Same thing, different compound: Cc1ccc(C(SCC(=O)N(C)O)P(=O)(O)O)cc1 (racemic)
### Response 1.98

### Prompt For CN(O)C(=O)CSC(c1ccccc1)P(=O)(O)O (racemic) then?
### Response 1.88

### Prompt # iterate: CN(O)C(=O)CSC(c1ccc(F)c(F)c1)P(=O)(O)O (racemic)
### Response 1.94

### Prompt Item: O=C(CSC(c1ccc(F)c(F)c1)P(=O)(O)O)NO (racemic)
### Response 2.52

### Prompt Can you check CN(O)C(=O)CCC(c1ccc(F)c(F)c1)P(=O)(O)O (configuration not stated) next?
### Response 1.60

----------
Quick reference: pIC50 of the listed items.
- measuredTarget: 1-deoxy-D-xylulose 5-phosphate reductoisomerase (Mycobacterium tuberculosis, UniProt P9WNS1)
- Sequence (P9WNS1 whole entry): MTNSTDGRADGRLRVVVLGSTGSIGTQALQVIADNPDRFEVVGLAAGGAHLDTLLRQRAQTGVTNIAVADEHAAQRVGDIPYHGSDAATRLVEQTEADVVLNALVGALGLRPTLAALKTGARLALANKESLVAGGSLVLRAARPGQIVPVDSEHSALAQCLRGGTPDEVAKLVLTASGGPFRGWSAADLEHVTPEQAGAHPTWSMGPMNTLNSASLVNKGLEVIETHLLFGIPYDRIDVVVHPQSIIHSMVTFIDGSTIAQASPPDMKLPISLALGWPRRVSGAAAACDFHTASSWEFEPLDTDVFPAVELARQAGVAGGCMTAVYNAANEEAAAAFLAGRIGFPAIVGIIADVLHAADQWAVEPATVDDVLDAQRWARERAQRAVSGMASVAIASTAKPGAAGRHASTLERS
Units for pIC50: none; it is -log10 of a concentration expressed in mol/L.

Look over these answered cases.
compound	pIC50
CN(O)C(=O)COC(c1cccc2ccccc12)P(=O)(O)O (centres undefined)	4.82
O=C(CSC(c1ccccc1)P(=O)(O)O)NO (racemic)	4.82
O=C(CSC(c1ccc(Cl)c(Cl)c1)P(=O)(O)O)NO (racemic)	6.14
Cc1ccc(C(CCC(=O)N(C)O)P(=O)(O)O)cc1 (centres undefined)	5.74

### Prompt Tell me the measured pIC50 of CN(O)C(=O)CCC(c1ccc(F)c(F)c1)P(=O)(O)O (centres undefined) , please.
### Response 6.11

### Prompt Quick one: CN(O)C(=O)COC(c1ccc(F)c(F)c1)P(=O)(O)O (centres undefined)
### Response 5.34

### Prompt And what about the compound CN(O)C(=O)COC(c1ccccc1)P(=O)(O)O (centres undefined) ?
### Response 4.80

----------
This section presents compounds with their documented pKi values.
- method: Inhibition of Plasmodium falciparum IspC expressed in recombinant Escherichia coli M15 by photometric assay
Scale explanation: pKi corresponds to minus log10 of a concentration expressed in moles per litre.

Reference set (2 entries):
compound	pKi
CN(O)C(=O)CS[C@@H](c1ccccc1)P(=O)(O)O	8.77
CN(O)C(=O)CS[C@H](c1ccccc1)P(=O)(O)O	5.66

Consider the record given below.
### Prompt Quick check: pKi of CN(O)C(=O)CSC(c1ccccc1)P(=O)(O)O (racemic) ?
### Response 8.36
